Experiment: in vitro
Format: cell-based
Settings: human, HepG2 or HepG2.117 cells, ATPlite, 3-days incubation (not marked with *), mean value
measure: CC50 at 3 days

Problem: Endpoint output: CC50 at 3 days of CC(C)Nc1nc2c(c(=O)n1-c1ccc(-n3cncn3)cc1)C[C@@H](C)N(C(=O)c1ccc(Cl)c(Cl)c1)C2 . Value?
Result: > 50 µM

Problem: Endpoint output: CC50 at 3 days of CNC(=O)c1ccc(-n2c(N[C@@H](C)c3ccc(OC(F)(F)F)cc3)nc3c(c2=O)C[C@@H](C)N(C(=O)c2ccc(Cl)c(Cl)c2)C3)cc1 (single isomer, unassigned) [Compound C440b] . Value?
Result: 6.3 µM

Problem: Endpoint output: CC50 at 3 days of CNC(=O)c1ccc(-n2c(NC(C)C)nc3c(c2=O)C[C@@H](C)N(C(=O)c2cc4ccncc4s2)C3)cc1 . Value?
Result: > 50 µM

Problem: Endpoint output: CC50 at 3 days of CNC(=O)c1ccc(-n2c(N[C@@H]3CCO[C@H]3c3ccccc3)nc3c(c2=O)C[C@@H](C)N(C(=O)c2ccc(Cl)c(Cl)c2)C3)cc1 . Value?
Result: 31.5 µM

Problem: Endpoint output: CC50 at 3 days of CNC(=O)c1ccc(-n2c(NC(C)C)nc3c(c2=O)C[C@@H](C)N(C(=O)c2nn(C)c4ccccc24)C3)cc1 . Value?
Result: > 50 µM

Problem: Endpoint output: CC50 at 3 days of CNC(=O)c1ccc(-n2c(NC(C)c3ncn(C)n3)nc3c(c2=O)C[C@@H](C)N(C(=O)c2ccc(Cl)c(Cl)c2)C3)cc1 (stereo partly drawn) . Value?
Result: > 50 µM
